assay: Human HepG2 cell viability assay in 384 well format; type: toxicity, cell-based; design: dose 125 nL, time 70.5 hour; concentration not given beside the values; conditions: HepG2 cells, read-out: Inhibition
observation_type: cytotoxicity at 70.5 h (%)
Express the result in % but write the number alone.

Reference set, count: 3
Cc1ccc(OCCSC2=NCCN2)cc1; -4.93
O=C(NCCc1cccnc1)NC1CCOC2(CCCCC2)C1 (stereo not given); 17.8
O=C(CN1CCCCC1Cn1cncn1)Nc1ccncc1 (stereo not given); 3.49

Please examine the following record next.
Recorded cytotoxicity at 70.5 h (compound Cn1cc(C(=O)CC2CCCN2C(=O)c2ccc3[nH]ncc3c2)cn1 (stereo not given) ): 30

====

This section presents compounds with their documented cytotoxicity at 70.5 h values.
experiment: Human HepG2 cell viability assay in 384 well format; type: toxicity, cell-based; parameters: dose 125 nL, time 70.5 hour; concentration not given beside the values; details: HepG2 cells, read-out: Inhibition
Express the result in % but write the number alone.

Reference set, count: 6
CN1C[C@@H](COCC2CC2)[C@H]2CCN(Cc3ccco3)CC[C@H]2C1=O; -5.7
COc1ccc(-n2cc(CCO)cn2)cc1C; -9.33
O=C(c1ccc2nccnc2c1)N1C[C@@H](CN2CCCC2)[C@@H](CO)C1; -5.28
COc1cccc(N2C(=O)CC3(CCNCC3)C2=O)c1; -4.17
O=C(c1ccccc1)N1CC[C@H]2C[C@@H](c3nccs3)O[C@@H]2C1; -17.1
CN(C(=O)CN1CCCc2cc(F)cc(F)c21)c1ccccc1; -16.8

Recorded cytotoxicity at 70.5 h (compound `COCC(=O)N1CCN(C(=O)C2CCCCC2)[C@@H](C(=O)OC)C1` ): 1.64

Recorded cytotoxicity at 70.5 h (compound `O=C(CCc1cscn1)N1CCC(C(=O)O)(c2ccccc2)CC1` ): 4.76

====

test: Human HepG2 cell viability assay in 384 well format; type: toxicity, cell-based; parameters: dose 125 nL, time 70.5 hour; concentration not given beside the values; details: HepG2 cells, read-out: Inhibition
observation_type: cytotoxicity at 70.5 h (%)
Express the result in % but write the number alone.

Reference set, count: 4
C[C@@H]1CN(C2(C(=O)N(C)C)Cc3ccccc3C2)C[C@H](C)O1; 13.4
COc1ccc(C(=O)N(CCC#N)Cc2ccccn2)cc1; -2.45
Cc1cnn(-c2cccc(N3CCN(c4cc(C)nc(C)n4)CC3)n2)c1; 15.5
Cc1nc(CNCc2ccc(N3CCC(CO)CC3)nc2)cs1; -1.44

Recorded cytotoxicity at 70.5 h (compound Cc1nccn1-c1cncc(C2CCCN2Cc2cccnc2)n1 (centres undefined) ): 19.3

Recorded cytotoxicity at 70.5 h (compound Cc1cnn(CC2CCCCN2c2nn3cc(C)nc3s2)c1 (centres undefined) ): 21.1

Recorded cytotoxicity at 70.5 h (compound Cn1ccc(C(=O)NC2CCC23CCN(C(=O)N2CCCC2)CC3)c1 (centres undefined) ): -1.08

Recorded cytotoxicity at 70.5 h (compound Cn1cnnc1C1CCCN(C(=O)CCc2ccc3c(c2)OCO3)C1 (centres undefined) ): 15.2

Recorded cytotoxicity at 70.5 h (compound `CC(C)N1CCO[C@@H]2CN(C(=O)NCc3ccccc3)CC[C@@H]2C1` ): 28.5

Recorded cytotoxicity at 70.5 h (compound CCc1nc2c(NCC3COc4ccccc4C3)ncnc2o1 (centres undefined) ): -1.81

Recorded cytotoxicity at 70.5 h (compound `CCC(=O)Nc1ncn(Cc2cccnc2)n1` ): 15.8

Recorded cytotoxicity at 70.5 h (compound CC(C)CN1CCCC1c1ccc(C(=O)Nc2cc[nH]n2)s1 (centres undefined) ): -0.844
